# assayed.target: T1, TNFR1 (Homo sapiens, UniProt P19438)
# T1 chain: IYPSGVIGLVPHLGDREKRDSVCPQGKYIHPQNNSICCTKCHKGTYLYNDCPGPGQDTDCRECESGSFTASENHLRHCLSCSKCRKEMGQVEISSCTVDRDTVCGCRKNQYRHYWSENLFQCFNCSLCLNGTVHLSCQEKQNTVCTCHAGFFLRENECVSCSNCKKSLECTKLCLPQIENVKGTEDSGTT
# measurement.description: yeast display SC50
attribute.measured: apparent Kd (screen) (nM)

Here are 5 binders together with their reported answers.
binder	attribute.measured	output.unit	experimental.value
W68E (designed binder) MTLQELLREEALRRAEAEAFRYALELLAEKFPEQKEYLLDLAEEIESQIRSLSGVDVEDVRKFLDKEEAWVKELLAEHPAELAEVEAARAARLAELRAEVEAKVAA	apparent Kd (screen)	nM	2.73
A17Q (designed binder) MTLQELLREEALRRAEQEAFRYALELLAEKFPEQKEYLLDLAEEIESQIRSLSGVDVEDVRKFLDKEWAWVKELLAEHPAELAEVEAARAARLAELRAEVEAKVAA	apparent Kd (screen)	nM	0.277
P79G (designed binder) MTLQELLREEALRRAEAEAFRYALELLAEKFPEQKEYLLDLAEEIESQIRSLSGVDVEDVRKFLDKEWAWVKELLAEHGAELAEVEAARAARLAELRAEVEAKVAA	apparent Kd (screen)	nM	0.956
E99V (designed binder) MTLQELLREEALRRAEAEAFRYALELLAEKFPEQKEYLLDLAEEIESQIRSLSGVDVEDVRKFLDKEWAWVKELLAEHPAELAEVEAARAARLAELRAVVEAKVAA	apparent Kd (screen)	nM	0.446
L6Q (designed binder) MTLQEQLREEALRRAEAEAFRYALELLAEKFPEQKEYLLDLAEEIESQIRSLSGVDVEDVRKFLDKEWAWVKELLAEHPAELAEVEAARAARLAELRAEVEAKVAA	apparent Kd (screen)	nM	4.83

[I] L93A (designed binder) MTLQELLREEALRRAEAEAFRYALELLAEKFPEQKEYLLDLAEEIESQIRSLSGVDVEDVRKFLDKEWAWVKELLAEHPAELAEVEAARAARAAELRAEVEAKVAA
[II] A91Q (designed binder) MTLQELLREEALRRAEAEAFRYALELLAEKFPEQKEYLLDLAEEIESQIRSLSGVDVEDVRKFLDKEWAWVKELLAEHPAELAEVEAARAQRLAELRAEVEAKVAA
Parameter metric = apparent Kd (screen). Return the lower-valued option from I and II . Please respond with the label that marks your chosen entry. II
